- assayed_system: Thromboxane A2 receptor (Homo sapiens)
- method_summary: Displacement of [3H]SQ-29548 from TPbeta receptor (long isoform) expressed in COS7 cells at 1 nM
- run_parameters: COS-7
endpoint_label: Activity (%)

Some compounds with recorded Activity:
# structure_smiles, endpoint_label, units_label, quantitative_readout
measured = [
    ("CCCCCNC(=O)NS(=O)(=O)c1cc([N+](=O)[O-])ccc1Nc1cccc(C)c1", "Activity", "%", 35.8),
    ("CCCCCNC(=O)NS(=O)(=O)c1cc([N+](=O)[O-])ccc1Oc1ccccc1C", "Activity", "%", 36.8),
    ("CCCCCNC(=O)NS(=O)(=O)c1cc([N+](=O)[O-])ccc1Nc1cc(C)ccc1C", "Activity", "%", 33.1),
]

(1) CCCCCNC(=O)NS(=O)(=O)c1cc([N+](=O)[O-])ccc1Nc1cccc(C)c1C
(2) CCCCCCCCNC(=O)NS(=O)(=O)c1cc([N+](=O)[O-])ccc1NC1CCCCC1
Field: lower Activity | Options: 1 / 2 The response must carry the label of the picked entry.
2
(2: 24.1%, 1: 39%)
